From: patent US11530197B2

This section lists IC50 readings for UniProt:O95819.
Sequence (O95819 whole entry): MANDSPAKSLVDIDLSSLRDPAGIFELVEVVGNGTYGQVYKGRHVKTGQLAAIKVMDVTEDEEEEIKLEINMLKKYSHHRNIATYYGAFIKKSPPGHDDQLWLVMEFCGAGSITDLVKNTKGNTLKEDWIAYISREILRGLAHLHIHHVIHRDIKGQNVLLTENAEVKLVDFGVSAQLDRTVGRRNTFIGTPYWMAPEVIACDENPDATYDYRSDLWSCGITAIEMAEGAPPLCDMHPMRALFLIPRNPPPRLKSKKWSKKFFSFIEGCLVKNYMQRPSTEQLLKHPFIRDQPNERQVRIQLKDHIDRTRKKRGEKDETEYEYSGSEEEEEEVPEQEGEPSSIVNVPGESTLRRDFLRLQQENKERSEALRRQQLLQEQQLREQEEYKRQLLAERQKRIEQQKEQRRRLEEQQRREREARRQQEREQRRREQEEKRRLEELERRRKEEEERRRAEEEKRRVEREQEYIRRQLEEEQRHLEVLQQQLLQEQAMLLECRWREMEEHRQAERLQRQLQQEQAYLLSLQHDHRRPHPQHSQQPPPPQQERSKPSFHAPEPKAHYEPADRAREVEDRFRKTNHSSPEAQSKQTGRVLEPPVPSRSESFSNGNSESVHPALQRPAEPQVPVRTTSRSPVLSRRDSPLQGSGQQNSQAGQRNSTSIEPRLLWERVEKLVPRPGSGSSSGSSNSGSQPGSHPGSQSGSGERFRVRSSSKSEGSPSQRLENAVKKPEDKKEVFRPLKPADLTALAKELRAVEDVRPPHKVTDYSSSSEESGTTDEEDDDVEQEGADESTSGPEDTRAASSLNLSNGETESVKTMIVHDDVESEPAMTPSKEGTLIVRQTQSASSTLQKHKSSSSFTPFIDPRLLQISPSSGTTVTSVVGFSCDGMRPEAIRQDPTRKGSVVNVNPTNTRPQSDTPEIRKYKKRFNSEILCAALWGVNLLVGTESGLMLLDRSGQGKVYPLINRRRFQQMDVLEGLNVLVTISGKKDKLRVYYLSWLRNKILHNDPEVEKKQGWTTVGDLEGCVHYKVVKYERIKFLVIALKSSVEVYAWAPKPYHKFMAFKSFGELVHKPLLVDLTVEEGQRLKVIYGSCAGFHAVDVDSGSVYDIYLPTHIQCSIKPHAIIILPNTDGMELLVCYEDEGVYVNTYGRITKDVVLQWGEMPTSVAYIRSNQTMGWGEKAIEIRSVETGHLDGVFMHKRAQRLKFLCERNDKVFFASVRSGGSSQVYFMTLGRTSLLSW

Examples with their reported IC50 follow.
CC(C)n1cnc(-c2ccc(C(F)(F)F)cc2)c1-c1nc(C(=O)Nc2ccc(N3CCN(CCO)CC3)cc2)c[nH]1 [Compound 134]	> 120 nM
CN1CCN(c2ccc(NC(=O)c3c[nH]c(-c4c(-c5ccc(F)cc5)ncn4CC(F)(F)F)n3)cc2)CC1 [Compound 120]	> 120 nM
CC(C)n1cnc(-c2ccc(F)cc2)c1-c1nc(C(=O)Nc2ccc(N3CCNCC3)cc2)c[nH]1 [Compound 181]	12 to 120 nM
CC(C)n1cnc(-c2ccc(Cl)cc2)c1-c1nc(C(=O)Nc2ccc(CCC(=O)O)cc2)c[nH]1 [Compound 137]	> 120 nM
CC1CN(c2ccc(NC(=O)c3c[nH]c(-c4c(-c5ccc(F)cc5)ncn4C(C)C)n3)cc2)CC(C)N1C (centres unmarked) [Compound 196]	12 to 120 nM
CC(C)n1cnc(-c2ccc(C(F)(F)F)cc2)c1-c1nc(C(=O)Nc2ccc(N3CCN(C)CC3)cc2)c[nH]1 [Compound 142]	> 120 nM

Looking for the measured IC50 of CN1[C@@H]2CC[C@H]1CN(c1ccc(NC(=O)c3c[nH]c(-c4c(-c5ccc(F)cc5)ncn4CC(F)(F)F)n3)cc1)C2 [Compound 193] , can you help? 12 to 120 nM

Looking for the measured IC50 of O=C(Nc1ccc(N2CCN(CC(F)(F)F)CC2)cc1)c1c[nH]c(-c2c(-c3ccc(F)cc3)ncn2CC(F)(F)F)n1 [Compound 192] , can you help? > 120 nM

Looking for the measured IC50 of O=C(Nc1ccc(N2CCN(CCO)CC2)cc1)c1c[nH]c(-c2c(-c3ccc(F)cc3)ncn2[C@H]2CC[C@H](O)CC2)n1 [Compound 158] , can you help? 12 to 120 nM

Looking for the measured IC50 of CC(C)n1cnc(-c2ccc(F)cc2)c1-c1nc(C(=O)Nc2ccc(N3CCN(C(N)=O)CC3)cc2)c[nH]1 [Compound 99] , can you help? > 120 nM

###

Target Desc: TNIK(h) (Homo sapiens (Human))
Sequence (Q9UKE5 whole entry): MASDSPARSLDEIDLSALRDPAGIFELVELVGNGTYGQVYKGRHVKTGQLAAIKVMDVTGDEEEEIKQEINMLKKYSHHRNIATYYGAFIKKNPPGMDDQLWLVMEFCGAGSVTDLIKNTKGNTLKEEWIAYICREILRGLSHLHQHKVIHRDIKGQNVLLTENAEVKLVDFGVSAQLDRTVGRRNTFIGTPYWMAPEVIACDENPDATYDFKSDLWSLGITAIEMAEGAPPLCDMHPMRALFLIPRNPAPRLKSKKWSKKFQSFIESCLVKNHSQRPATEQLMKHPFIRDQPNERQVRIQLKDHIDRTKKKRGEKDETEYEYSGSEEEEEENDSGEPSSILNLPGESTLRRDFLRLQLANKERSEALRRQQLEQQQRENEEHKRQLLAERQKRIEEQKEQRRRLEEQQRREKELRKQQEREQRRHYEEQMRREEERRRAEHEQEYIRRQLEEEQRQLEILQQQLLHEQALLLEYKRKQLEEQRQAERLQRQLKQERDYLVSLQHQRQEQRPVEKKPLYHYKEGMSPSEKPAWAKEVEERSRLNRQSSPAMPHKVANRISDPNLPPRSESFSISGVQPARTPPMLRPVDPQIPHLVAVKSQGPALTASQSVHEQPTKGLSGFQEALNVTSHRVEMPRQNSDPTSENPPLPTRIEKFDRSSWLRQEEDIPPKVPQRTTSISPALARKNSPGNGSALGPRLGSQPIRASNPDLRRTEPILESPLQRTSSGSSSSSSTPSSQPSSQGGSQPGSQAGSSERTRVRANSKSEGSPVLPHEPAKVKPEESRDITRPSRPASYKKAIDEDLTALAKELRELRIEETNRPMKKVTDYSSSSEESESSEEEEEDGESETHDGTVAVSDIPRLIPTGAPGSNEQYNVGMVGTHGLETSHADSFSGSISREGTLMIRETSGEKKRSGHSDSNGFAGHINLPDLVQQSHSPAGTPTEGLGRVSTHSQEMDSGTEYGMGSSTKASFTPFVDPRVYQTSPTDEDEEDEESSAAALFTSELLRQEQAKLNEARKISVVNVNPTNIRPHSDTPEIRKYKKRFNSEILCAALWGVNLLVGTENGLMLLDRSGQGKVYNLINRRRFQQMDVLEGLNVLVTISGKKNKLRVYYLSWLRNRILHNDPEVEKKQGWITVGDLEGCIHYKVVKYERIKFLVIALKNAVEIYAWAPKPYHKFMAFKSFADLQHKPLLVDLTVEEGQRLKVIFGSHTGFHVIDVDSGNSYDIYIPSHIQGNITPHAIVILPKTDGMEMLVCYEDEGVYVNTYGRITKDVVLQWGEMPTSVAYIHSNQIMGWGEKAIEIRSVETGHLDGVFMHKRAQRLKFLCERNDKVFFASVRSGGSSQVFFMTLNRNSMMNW
Assay Info: TNIK Human STE Kinase Enzymatic Radiometric Assay;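 further: remaining kinase activity relative to DMSO control, compound added without preincubation, reaction started with ATP, IC50 from variable-slope sigmoidal dose-response fit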
Format: biochemical
Settings: ATP 70 μM; 40 min at room temperature; read-out: TNIK (IC50)
pIC50: −log10 of the molar value.
Measure: pIC50

Examples with their reported pIC50 follow.
CC(C)n1cnc(-c2ccc(C(F)(F)F)cc2)c1-c1nc(C(=O)Nc2ccc(CCC(=O)O)cc2)c[nH]1	< 6.92
CC(C)n1cnc(-c2ccc(Cl)cc2)c1-c1nc(C(=O)Nc2ccc(N3CCN(CCO)CC3)cc2)c[nH]1	6.92 to 7.92
C[N+]1([O-])CCN(c2ccc(NC(=O)c3c[nH]c(-c4c(-c5ccc(F)cc5)ncn4CC(F)(F)F)n3)cc2)CC1	< 6.92
CN1CCN(c2ccc(NC(=O)c3c[nH]c(-c4c(-c5ccc(F)cc5)ncn4C(F)F)n3)cc2)CC1	6.92 to 7.92
CC(C)n1cnc(-c2ccc(F)cc2)c1-c1nc(C(=O)Nc2ccc(N3CCNCC3)cc2)c[nH]1	6.92 to 7.92

Looking for the measured pIC50 of CC(C)n1cnc(-c2ccc(F)cc2)c1-c1nc(C(=O)Nc2ccc(C(=O)O)cc2)c[nH]1 , can you help? 7.92 to 9.00

Looking for the measured pIC50 of CC(C)n1cnc(-c2ccc(F)cc2)c1-c1nc(C(=O)Nc2ccc(N3CCN(C)C(=O)C3)cc2)c[nH]1 , can you help? 6.92 to 7.92
